Assay: Toxicity liver stage against HepG2, at 10uM
Type: cell-based
Parameters: test concentration 10 uM, cell line HepG2-A16-CD81EGFP
Details: human, HepG2-A16-CD81EGFP cells; read-out: INHIBITION
compounds and their reported cytotoxicity at 10 µM
reportedMetric: cytotoxicity at 10 µM (%)

compound | unitsLabel | recordedResult
CCN(CC)C(=O)Cn1cc(-c2nc(C(C)C)no2)nn1 | % | 2.28
CCN(Cc1ccc(C(C)=O)cc1)CC1CCOCC1 | % | -2.69
CCc1c(C(=O)N2CCCC(N(C)C)C2)cnn1C(C)(C)C (stereo unspecified) | % | -0.088
Cc1cccc(C(=O)Nc2ccc(OC3CCOCC3)c(C)c2)n1 | % | -8.99
O=C(COCc1ccccc1Cl)N1CCCC(n2cccn2)C1 (stereo unspecified) | % | 10
O=C(C1CCCOC1)N1CCc2ccc(F)cc21 (stereo unspecified) | % | 2.35

###

Assay: Toxicity liver stage against HepG2, at 10uM
Assay type: cell-based
Parameters: test concentration 10 uM, cell line HepG2-A16-CD81EGFP
Settings: human, HepG2-A16-CD81EGFP cells; read-out: INHIBITION

molecule | unitsLabel | cytotoxicity at 10 µM
Cc1noc2nc3c(c(C(=O)/N=c4\[nH]ncs4)c12)CCC3 | % | -0.493
C[C@@H]1CN(C2CCN(c3ccccc3)CC2)CC[C@@]1(O)C1CCOCC1 | % | -10.6
Cc1nn(CCO)c(C)c1CNC1CCC(C)(C)c2ccccc21 (configuration not stated) | % | -3.34
C=C(C)Cn1cc(C(N)=O)nc1C1CC1 | % | 14.5
O=C(Nc1ccccc1F)C1=NN(c2ccccc2)C(=O)CN1 | % | -13.2
O=C1CCCN1Cc1nc(-c2ccsc2)no1 | % | -5.41
CCn1ncnc1CN1CCC(CNC(=O)c2cccnc2O)C1 (configuration not stated) | % | 7.06
O=C(NCc1nncn1-c1ccccc1)C1CCCCC1 | % | -22.1
CC(C)Nc1nnc(SCc2nnc(C(C)(C)C)o2)s1 | % | -0.386
Cc1c(-c2cccs2)nn2c(=O)c3c([nH]c12)CN(C(=O)C1CC1)C3 | % | -4.02
Cc1cc(S(=O)(=O)NCC(O)c2sccc2C)ccc1F (configuration not stated) | % | -1.81
c1cc(-c2cnc(NC3CC3)nc2[C@H]2CCCO2)ccn1 | % | 9.83

###

compounds and their reported cytotoxicity at 10 µM
Assay: Toxicity liver stage against HepG2, at 10uM
Assay type: cell-based
Set-up: test concentration 10 uM, cell line HepG2-A16-CD81EGFP
Settings: human, HepG2-A16-CD81EGFP cells; read-out: INHIBITION
reportedMetric: cytotoxicity at 10 µM (%)

compound | recordedResult
Cc1ccc(OCC(=O)NC2CC2)nc1 | 4.06
O=C(CN1CCCC1c1cccs1)N1CCc2sccc2C1 (configuration not stated) | -17
Cc1noc(C)c1-c1nc(N(C)CCN(C)C)ncc1-c1cnccn1 | -12.4
Cc1cc(C(N)=O)c2c(Br)cccc2n1 | 1.09
CC(C(=O)N1CCCC1)S(=O)(=O)Cc1nc(C(C)(C)C)no1 (configuration not stated) | 8.18
O=C(NCCc1ccc(I)s1)N1CCC1 | -11.1
c1ncn(CC2CN(Cc3ccc4c(c3)OCCO4)CCO2)n1 (configuration not stated) | -0.282
O=C(NC[C@H]1OC[C@@H]2CCN(Cc3ccco3)C[C@@H]21)c1ccnnc1 | -143
CN1CCC(n2cc3nc(N)[nH]cc-3c2=O)CC1 | 8.6
Fc1ccc(CN2CC[C@H]3O[C@@H](COCC4CCOCC4)CC[C@H]32)cc1 | 7.64
Cc1ncc(S(C)(=O)=O)c(N2Cc3ccccc3C2)n1 | -18.3
CC(C)(C)NC(=O)CN1CCCC(c2ccc(C(=O)O)cc2)C1 (configuration not stated) | -6.17

###

molecules and their reported cytotoxicity at 10 µM
Test: Toxicity liver stage against HepG2, at 10uM
Assay type: cell-based
Design: test concentration 10 uM, cell line HepG2-A16-CD81EGFP
Details: human, HepG2-A16-CD81EGFP cells; read-out: INHIBITION
reportedMetric: cytotoxicity at 10 µM (%)

molecule | recordedResult
NCCc1cccc(CN2CCN(c3cccc(Cl)c3)C(=O)C2)c1 | -5.29
CC(NCC(=O)NCC(=O)Nc1ccc(F)cc1)c1cccs1 (configuration not stated) | 6.02
O=C(Nc1ccccc1)c1cc2n(n1)CCCN(C(=O)N1CCCC1)C2 | -70.3
CNC(=O)CN1CCC(CN(C)Cc2ccncc2Cl)CC1 | -2.87
COc1cccc([C@H]2CN(C(=O)c3noc4c3CCCC4)C[C@@H]2N)c1 | 2.57
Nc1nccnc1C(=O)N1CC(OCc2cccc3ccccc23)C1 | 7.39
CC(C)NC(=O)CN(C)C(=O)c1c(Cl)c2ccccc2n1C | 5.26
COc1ccc(-c2ccccc2CCN)c(OC)c1OC | 2.79
CCOCc1nn(C)c2c1CN(C(=O)c1ccno1)CC2 | 8.61
Cc1cccc(-c2nccn2-c2cccc(CC(=O)O)c2)n1 | 4.55
COc1ccccc1CNc1c(N2CCN(C(C)=O)CC2)c(=O)c1=O | -0.707
O=C(O)C1(Cc2cccc(-c3cccs3)c2)CCCNC1 (configuration not stated) | 4.43

###

Assay: Toxicity liver stage against HepG2, at 10uM
Format: cell-based
Design: test concentration 10 uM, cell line HepG2-A16-CD81EGFP
Settings: human, HepG2-A16-CD81EGFP cells; read-out: INHIBITION
molecules and their reported cytotoxicity at 10 µM
reportedMetric: cytotoxicity at 10 µM (%)

molecule | recordedResult
c1snnc1CN1C[C@H]2CCC[C@@H](CN3CCOCC3)[C@H]2C1 | -116
O=C1CC(c2ccccc2F)c2c(n3ccsc3nc2=O)N1 (stereo unspecified) | -5.93
COc1ncc(CN2CCC3(CCCN(CC4CCC4)C3)C2)cn1 (stereo unspecified) | -1.95
COC(=O)c1ccc(NC(=O)NC2CCc3[nH]ncc3C2)cc1 (stereo unspecified) | -11.2
CCS(=O)(=O)N(C)c1ccc(C(=O)N2CCCC(C)C2)cc1 (stereo unspecified) | -15.4
O=C(N[C@@H]1CN(CC2CC2)[C@@H]2CCCO[C@@H]21)c1cscn1 | -109

###

Test: Toxicity liver stage against HepG2, at 10uM
Assay type: cell-based
Parameters: test concentration 10 uM, cell line HepG2-A16-CD81EGFP
Details: human, HepG2-A16-CD81EGFP cells; read-out: INHIBITION
compounds and their reported cytotoxicity at 10 µM
reportedMetric: cytotoxicity at 10 µM (%)

compound | recordedResult
Cc1ccccc1C(=O)NCCCN1CCc2ccccc2C1 | -16.5
Cn1cccc1C(=O)N1C[C@@H]2CCN(c3cccnc3)C[C@@H]2C1 | -58.3
Cc1ccccc1CS(=O)(=O)c1nnc(N2CCOCC2)s1 | -9.61
Cn1cc(C2CC3(CCN(C(=O)c4cccs4)CC3)NC2=O)cn1 (stereo unspecified) | 1.27
Cc1ccc(C)c(NC(=O)Cc2c(C)nc3c(c2C)c(=O)[nH]n3C)c1 | 15.4
Cc1c[nH]nc1C1CCCN1Cc1nccn1C (stereo unspecified) | -3.34
Cc1noc(C)c1CC(=O)NCC1(O)CCCN(c2ccccn2)C1 (stereo unspecified) | -2.03
O=C(CCn1ncc2c(Cl)cccc21)NCCCO | 7.63
COC[C@]1(O)CCN(C2CCN(c3ccc(Cl)cc3)CC2)CC1(C)C | -0.75
Cc1cc(N(C)C)nc(N2CCCC2c2cccnc2)n1 (stereo unspecified) | -14.1
Cc1cc(C(F)(F)F)cc(N2C[C@@H](CN3CCOCC3)[C@@H](CO)C2)n1 | -6.02

###

molecules and their reported cytotoxicity at 10 µM
Assay: Toxicity liver stage against HepG2, at 10uM
Format: cell-based
Design: test concentration 10 uM, cell line HepG2-A16-CD81EGFP
Settings: human, HepG2-A16-CD81EGFP cells; read-out: INHIBITION
reportedMetric: cytotoxicity at 10 µM (%)

molecule | reportedMetric | recordedResult
O=C(c1ccc(-c2ccccc2)[nH]c1=O)N1CCN(C2CC2)CC1 | cytotoxicity at 10 µM | 9.8
CCc1ccc(S(=O)(=O)NCCOc2ccc3nnc(C)n3n2)s1 | cytotoxicity at 10 µM | -6.98
Fc1cnc(N2CC[C@@H]3O[C@@H](COCc4cccnc4)CC[C@@H]32)nc1 | cytotoxicity at 10 µM | 10.1
CCn1c(N)nc2cc(C(=O)N3Cc4ccccc4C3)cnc21 | cytotoxicity at 10 µM | -8.51
NC(=O)c1ccc(CNC2CCCSC2)cc1 (stereo not drawn) | cytotoxicity at 10 µM | -9.44
CCN(CC)C(=O)CN1CCc2c(nc(C3CCNCC3)nc2NC)C1 | cytotoxicity at 10 µM | 5.07
Cc1nn(C)c(C)c1C1CCCN1CCCc1nc2ccccc2o1 (stereo not drawn) | cytotoxicity at 10 µM | -4.3
Cn1ccnc1CN1C[C@H]2CN(S(C)(=O)=O)CCN2C1=O | cytotoxicity at 10 µM | -6.04
CCc1ncc2c(n1)CN(CC(=O)Nc1cc(C)on1)CC2 | cytotoxicity at 10 µM | 0.049
Cc1cnn(CCNCc2csc(-c3ccc(F)cc3)n2)c1 | cytotoxicity at 10 µM | -8.54
O=C1CN(C(=O)C2CCOC2)CCN1Cc1ccc(Cl)cc1 (stereo not drawn) | cytotoxicity at 10 µM | -150
c1ccc(CCN2CCCC2c2cccc(Nc3nccs3)n2)cc1 (stereo not drawn) | cytotoxicity at 10 µM | 8.91
O=C(N1CCCCC1)N1CCN(CC(O)c2ccccc2)CC1 (stereo not drawn) | cytotoxicity at 10 µM | -7.45
CC(=O)N1CCS(=O)(=O)[C@@H]2CCN(CC(C)C)CC[C@@H]21 | cytotoxicity at 10 µM | -142
CO[C@H]1COCCN(C(=O)c2ccc(C#N)cc2)C1 | cytotoxicity at 10 µM | 4.94
O=C(Cc1c[nH]c(=O)[nH]c1=O)N1CCC2(CCC(=O)N(C3CC3)C2)CC1 | cytotoxicity at 10 µM | -44.5
O=C(NCCc1nccs1)c1cn(CCN2CCNCC2)nn1 | cytotoxicity at 10 µM | -4.41
CC(C)OC(=O)NCc1ccc(NCc2cnn(C(C)(C)C)c2)cc1 | cytotoxicity at 10 µM | -0.741
CC(C)(C)n1ncc2c1NC(=O)CC2c1ccc(C#N)cc1 (stereo not drawn) | cytotoxicity at 10 µM | -1.26
Fc1cnc(N2CC[C@@H]3CN(Cc4ccncc4)CCO[C@@H]3C2)nc1 | cytotoxicity at 10 µM | 5.38
CN(C)c1cncc(C2CCN(CCO)CC2)n1 | cytotoxicity at 10 µM | 3.29
Cc1occc1C(=O)N1CCC2(CCCN(Cc3cccs3)C2)C1 (stereo not drawn) | cytotoxicity at 10 µM | 4.3
CN1CC(=O)N(c2cnn(C)c2)CC12CCN(Cc1cccs1)C2 (stereo not drawn) | cytotoxicity at 10 µM | 3.48
